Tested On: Munc13–1(3–150)(K32E) (rat) (UniProt Q62768)
Run Description: ITC; 200 μM Rim2α(82-142) injected into 10-20 μM Munc13-1(3-150)(K32E) in the cell; 20 °C; 30 mM Tris pH 7.4, 150 mM NaCl, 1 mM TCEP; single-site model; apparent Kd
Parameter: pKd
Note on units: pKd is unitless, being -log10 of a concentration expressed in mol/L.

Identify pKd associated with the binder RIM2α(82–142) (domain or fragment, rat, UniProt Q9JIS1-1 82-142, looked up, also called RIM2α ZF domain; RIM2α zinc-finger domain; source: bacteria, GST fusion, purified (glutathione-Sepharose, GST cleaved, size-exclusion or ion-exchange chromatography)) QQEQKGDAPTCGICHKTKFADGCGHNCSYCQTKFCARCGGRVSLRSNKVMWVCNLCRKQQE 7.00
